Tested on: Esch. coli 111 B4
Assay: M.I.C. in vitro, nutrient agar dilution
Assay type: cell-based
Settings: Escherichia coli, 18 h; Table 2; Esch. coli 111 B4 (Gram negative)
For each record, write down the corresponding MIC.
One number for each entry, in µg/mL.

Look up MIC for the entries below, preserving their order.
1. CCn1cc(C(=O)O)c(=O)c2cc(Cl)c(N3CCN(Cc4ccccc4)CC3)cc21 [Example 5]
2. CCn1cc(C(=O)O)c(=O)c2ccc(N3CCN(C)CC3)cc21 [Example T1, reference compound]
3. CCn1cc(C(=O)O)c(=O)c2ccc(N3CCN(CCO)CC3)cc21 [Example T4, reference compound]
4. CCn1cc(C(=O)O)c(=O)c2cc(Cl)c(N3CCN(CCO)CC3)cc21 [Example 4]
5. CCn1cc(C(=O)O)c(=O)c2cc(Cl)c(N3CCOCC3)cc21 [Example 7]
6. CCn1cc(C(=O)O)c(=O)c2cc(Cl)c(N3CCNCC3)cc21 [Example 3]

3.1
1.6
6.2
3.1
3.1
0.2

----------
Tested on: Providentia 0223
Assay: M.I.C. in vitro, nutrient agar dilution
Type: cell-based
Details: 18 h; Table 2; Providentia 0223 (Gram negative); read-out: M.I.C.
quantity_name: MIC (µg/mL)
Answers are plain numbers, in µg/mL.

INSERT INTO assay_data (molecule, experimental_result) VALUES
  ('CCn1cc(C(=O)O)c(=O)c2cc(Cl)c(N3CCN(CCO)CC3)cc21', 25),
  ('CCn1cc(C(=O)O)c(=O)c2ccc(N3CCN(C)CC3)cc21 [Example T1, reference compound]', 100);

As a next step, examine the molecule that follows.
Tell me the measured MIC of CCn1cc(C(=O)O)c(=O)c2cc(Cl)c(N3CCN(Cc4ccccc4)CC3)cc21 , please. 50

----------
For each record, write down the corresponding MIC.
System: Salm. typhi 0901
Assay: microbe, parasite or virus in culture
Format: cell-based
Conditions: Salmonella enterica, 18 h; Table III; Salm. typhi 0901
Experimental: After sterilisation at 120° C., the pH was 6.8. The minimum inhibitory concentrations (M.I.C.) were determined by dilution of the test compounds in this mixture, the concentration ranging from 0.05 to 100 μg/cm^3 in a geometric progression with a factor of 2. The inoculation of the dishes was carried out by means of a multiple inoculator with 10^-3 dilutions of 18 hour old broth cultures. The dishes were placed in an oven at 37° C. and the readings were taken afer an incubation time of 18 hours. […]
One number for each entry, in µg/mL.

# annotated cases, reported MIC shown
INSERT INTO measurements (smiles_representation, unit_abbreviation, experimental_result) VALUES
  ('C=Cn1cc(C(=O)O)c(=O)c2cc(F)c(N3CCN(C)CC3)cc21', 'µg/mL', 0.1),
  ('C=CCn1cc(C(=O)O)c(=O)c2cc(F)c(N3CCN(C)CC3)cc21', 'µg/mL', 0.1);

As a next step, examine the compound that follows.
Tell me the measured MIC of C=Cn1cc(C(=O)O)c(=O)c2cc(F)c(N3CCOCC3)cc21 , please. 0.8

----------
For each record, write down the corresponding MIC.
Test system: Staph. 9.144
Test: M.I.C. in vitro, nutrient agar dilution
Type: cell-based
Conditions: 18 h; Table 2; Staph. 9.144 (Gram positive); read-out: M.I.C.
Answers are plain numbers, in µg/mL.

# annotated cases, reported MIC shown
INSERT INTO results (molecule, experimental_result) VALUES
  ('CCn1cc(C(=O)O)c(=O)c2cc(Cl)c(N3CCN(CCO)CC3)cc21', 0.4),
  ('CCn1cc(C(=O)O)c(=O)c2cc(Cl)c(N3CCNCC3)cc21', 0.4);

As a next step, examine the molecule that follows.
Tell me the measured MIC of CCn1cc(C(=O)O)c(=O)c2ccc(N3CCN(CCO)CC3)cc21 [Example T4, reference compound] , please. 3.1

----------
Tested on: Salm. typhi 0901
Assay: microbe, parasite or virus in culture
Format: cell-based
Conditions: Salmonella enterica, 18 h; Table III; Salm. typhi 0901
For each record, write down the corresponding MIC.
Answers are plain numbers, in µg/mL.

INSERT INTO assay_data (compound, unit_abbreviation, experimental_result) VALUES
  ('CN1CCN(c2cc3c(cc2F)c(=O)c(C(=O)O)cn3C)CC1', 'µg/mL', 0.4);

Look up MIC for the entries below, preserving their order.
1. CCn1cc(C(=O)O)c(=O)c2cc3c(cc21)OCO3 [Oxolinic acid, oxolinic acid, reference compound]
2. Cn1cc(C(=O)O)c(=O)c2cc(F)c(N3CCNCC3)cc21

0.4
0.8

----------
Tested on: Esch. coli 54.127 O.M.S.
Assay: M.I.C. in vitro, nutrient agar dilution
Assay type: cell-based
Settings: Escherichia coli, 18 h; Table 2; Esch. coli 54.127 O.M.S. (Gram negative); read-out: M.I.C.
quantity_name: MIC (µg/mL)
One number for each entry, in µg/mL.

INSERT INTO assay_data (compound, experimental_result) VALUES
  ('CCn1cc(C(=O)O)c(=O)c2ccc(N3CCN(C)CC3)cc21 [Example T1, reference compound]', 1.6),
  ('CCn1cc(C(=O)O)c(=O)c2cc(Cl)c(N3CCNCC3)cc21 [Example 3]', 0.2),
  ('CCn1cc(C(=O)O)c(=O)c2cc(Cl)c(N3CCN(Cc4ccccc4)CC3)cc21 [Example 5]', 6.2),
  ('CCn1cc(C(=O)O)c(=O)c2cc(Cl)c(N3CCN(CCO)CC3)cc21 [Example 4]', 3.1),
  ('CCn1cc(C(=O)O)c(=O)c2ccc(N3CCN(CCO)CC3)cc21 [Example T4, reference compound]', 6.2);

// fetch Esch. coli 54.127 O.M.S. MIC for CCn1cc(C(=O)O)c(=O)c2cc(Cl)c(N3CCOCC3)cc21 [Example 7] 3.1

----------
For each record, write down the corresponding MIC.
System: S. oranienburg 1066
Assay: M.I.C. in vitro, nutrient agar dilution
Type: cell-based
Settings: Salmonella enterica, 18 h; Table 2; S. oranienburg 1066 (Gram negative); read-out: M.I.C.
One number for each entry, in µg/mL.

INSERT INTO measurements (compound, experimental_result) VALUES
  ('CCn1cc(C(=O)O)c(=O)c2cc(Cl)c(N3CCN(CCO)CC3)cc21 [Example 4]', 25);

As a next step, examine the compound that follows.
Tell me the measured MIC of CCn1cc(C(=O)O)c(=O)c2cc(Cl)c(N3CCN(Cc4ccccc4)CC3)cc21 [Example 5] , please. 100

----------
For each record, write down the corresponding MIC.
System: Providentia 0223
Test: M.I.C. in vitro, nutrient agar dilution
Type: cell-based
Settings: 18 h; Table 2; Providentia 0223 (Gram negative); read-out: M.I.C.

Look up MIC for the entries below, preserving their order.
1. CCn1cc(C(=O)O)c(=O)c2ccc(N3CCN(CCO)CC3)cc21 [Example T4, reference compound]
2. CCn1cc(C(=O)O)c(=O)c2cc(Cl)c(N3CCNCC3)cc21 [Example 3]
3. CCn1cc(C(=O)O)c(=O)c2cc(Cl)c(N3CCN(C)CC3)cc21 [Example 1]
4. CCn1cc(C(=O)O)c(=O)c2cc(Cl)c(N3CCOCC3)cc21 [Example 7]

["> 100 µg/mL", "1.6 to 3.1 µg/mL", "3.1 to 12.5 µg/mL", "> 100 µg/mL"]
